System: D54 ERlucT glycosylation luciferase reporter, luminescence, 24 h
Assay: N-linked glycosylation inhibitors, luciferase reporter, dose response, D54 ERlucT cells, luminescence, cherry-picks (AID 624491);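 note: signal gain reflects blocked N-linked glycosylation of a luciferase reporter; actives raise luciferase signal so AC26 marks activators of the reporter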
Active and inactive are the calls of the source.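 Rule for the calls: active = fitted curve crossing a set activation limit at or below the highest valid dose tested; inconclusive = flat fit at 30 to 70% activation, or poor fit; inactive = the rest, including signal decreases.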
Choose one outcome from this list and give only that: TRUE (active), FALSE (inactive)

### Prompt Write down the call the test reported for this compound. Item: `COC(=O)c1ccc(S(=O)(=O)N2CCc3ccccc32)cc1`
### Response TRUE

### Prompt # outcome recorded in this test, key = `COc1ccc(/C=N/NC(=O)c2nc(-c3ccccc3)cc(-c3ccccc3)n2)cc1O`
### Response TRUE

### Prompt For `COC(=O)c1ccccc1-c1ccc(C(c2c(C)[nH][nH]c2=O)c2c(C)[nH][nH]c2=O)o1` , what call appears in the results of this test?
### Response TRUE

### Prompt Please indicate how the test categorized `COCCCNC(=O)c1ccc(-c2c(C)noc2C)c2ccoc12` .
### Response TRUE

### Prompt Could you kindly confirm the outcome this assay logged for `Cc1cc([N+](=O)[O-])ccc1Nc1nc2ccccc2n2cnnc12` ?
### Response TRUE

### Prompt Hi team, can someone confirm the assay call for `COc1ccc(CCn2c(Br)nc3c2c(=O)[nH]c(=O)n3C)cc1` ?
### Response TRUE

### Prompt Just curious, what result did CC(=O)c1cccc(-c2ccnc3c2CC(C(=O)NCc2cccs2)O3)c1 (stereo unspecified) get here?
### Response TRUE

### Prompt Recorded test call requested for CC(Oc1ccc2c(c1)c1ccnc3c4ccccc4c(=O)n2c13)C(=O)NCCN1CCOCC1 (stereo unspecified)
### Response TRUE

### Prompt For `Cc1ccc(-c2nn3c(C)nnc3c3ccccc23)cc1S(=O)(=O)N1CCN(CCO)CC1` , which call appears in the assay record?
### Response TRUE

### Prompt Name the outcome recorded for CC1(C(=O)NCc2cccs2)Cc2c(-c3cccc(C(F)(F)F)c3)ccnc2O1 (stereo unspecified) in the assay.
### Response TRUE

### Prompt For `CCN(CC)CCn1c2ccccc2c2nc3ccccc3nc21` , what call appears in the results of this test?
### Response TRUE

### Prompt Which outcome did this test record for the compound COc1ccc(C2=NOC(C(=O)NCc3ccco3)C2)cc1 (stereo unspecified) ?
### Response TRUE

### Prompt Please let me know the test result on file for `COc1ccc(Cl)cc1NC(=O)CN(C)CC(=O)Nc1cc(OC)c(OC)c(OC)c1` .
### Response TRUE

### Prompt Which outcome was entered for the compound `Cc1[nH]c2ccccc2c1/C=N/NC(=O)c1cc(-c2ccncc2)nc2ccccc12` in this test?
### Response TRUE

### Prompt Outcome logged for `COC(=O)COc1cccc2c(=O)n(CC(=O)NCc3ccccc3)ccc12` in this assay:
### Response TRUE

### Prompt So what was the verdict on `O=C(c1ccc(Cl)c(S(=O)(=O)N2CCCCC2)c1)N1CCN(Cc2ccccc2)CC1` in this test?
### Response TRUE

### Prompt Please state the recorded outcome for this compound: Cc1c(C(=O)C(=O)N2c3ccc(F)cc3CCC2C)c2ccccc2n1C (stereo unspecified)
### Response TRUE

### Prompt # lookup: test call for `COc1cc(NC(=O)c2ccccc2F)ccc1NC(=O)c1cc2ccccc2o1`
### Response TRUE

### Prompt Short answer needed: outcome of this test for COc1ccc2nc3n(c(=O)c2c1)-c1cc2ccccc2cc1C(=O)NC3Cc1ccccc1 (stereo unspecified) ?
### Response FALSE

### Prompt Dear all, I need the recorded test outcome for `CCOc1ccc(S(=O)(=O)N2CCN=C2c2ccccc2)cc1` , thank you.
### Response TRUE

### Prompt Which outcome was entered for the compound `CCN(CC)S(=O)(=O)c1cccc(C(=O)N/N=C/c2ccc([N+](=O)[O-])o2)c1` in this test?
### Response TRUE

Data provenance is PubChem BioAssay AID624491.
